assay: Cytotoxicity against VeroC1008 cells at 6.25 to 50 ug/ml by neutral red uptake assay; type: cell-based; conditions: chlorocebus sabaeus, vero
MEASURED QUANTITY: Activity

O=C(O)CCNc1nc(Cc2n[nH]c(=S)n2NC(=O)c2ccc(Cl)cc2)cs1	Non-toxic
CC(=O)Nn1c(S)nnc1Cc1csc(NC(=O)CCl)n1	Non-toxic
O=C(CSc1nnc(Cc2csc(NC(=O)CCl)n2)n1NC(=O)c1ccc(Cl)cc1)NNC(=O)c1ccccc1	Non-toxic
CC(=O)Nn1c(Cc2csc(NC(=O)CCl)n2)nnc1SCc1nnc(S)n1N	Non-toxic
NNC(=O)CSc1nnc(Cc2csc(NC(=O)c3ccccc3)n2)n1NC(=O)c1ccccc1	Non-toxic

Ask | What value of Activity has been recorded for this entry: CC(=O)Nc1nc(Cc2nnc(SCSc3nnc(Cc4csc(NC(C)=O)n4)n3NC(=O)c3ccc(Cl)cc3)n2NC(=O)c2ccc(Cl)cc2)cs1
Reply | Non-toxic

Ask | Okay, and CC(=O)Nn1c(Cc2csc(NC(=O)c3ccccc3)n2)nnc1SCC(=O)NN ?
Reply | Non-toxic
